Cited source for all entries: the supplement of paper PMC6555819

# System: PXR homodimer (NR concentration 270 nM)
# testMethodNotes: PBM binding z-score (relative to random genomic background probes); higher = stronger binding; sequences stand for … in GC…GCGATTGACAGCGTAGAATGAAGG
Param threshold (0.5) applies to PBM binding z-score; output satisfied when value >= threshold, not satisfied when value < threshold.

In [3]: df
Out[3]:
                         inputsequence  discretelabel
 0  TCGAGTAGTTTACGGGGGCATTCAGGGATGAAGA      satisfied
 1  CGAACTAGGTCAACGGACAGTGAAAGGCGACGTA  not satisfied
 2  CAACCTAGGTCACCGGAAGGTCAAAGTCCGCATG      satisfied
 3  TTACCAAGGTGACCTGAGGTCGTTGATCCAACTC      satisfied
 4  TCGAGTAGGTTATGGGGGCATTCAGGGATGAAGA      satisfied
 5  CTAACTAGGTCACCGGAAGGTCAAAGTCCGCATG      satisfied
 6  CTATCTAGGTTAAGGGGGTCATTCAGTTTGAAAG      satisfied
 7  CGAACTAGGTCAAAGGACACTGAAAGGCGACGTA  not satisfied
 8  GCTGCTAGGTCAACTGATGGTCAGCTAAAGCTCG  not satisfied
 9  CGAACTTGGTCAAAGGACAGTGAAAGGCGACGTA  not satisfied
10  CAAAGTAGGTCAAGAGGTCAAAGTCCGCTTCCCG      satisfied
